Recorded measurements of CLH, one per entry
Test system: Liver microsomes
Experiment: Intrinsic clearance in human liver microsomes
Format: ADME, Microsome
Design: unit not given here
Give the figure only, with no unit attached.

Example results:
# Structure, Outcome Measure, Endpoint Result
measured = [
    ("O=C(C1CC(F)(F)C1)N1CCc2nc(C#Cc3ccccc3)sc2C1", "CLH", 1.1),
    ("CN1CCc2nc(C#Cc3ccccc3)sc2C1", "CLH", 4.9),
    ("O=C(N1CCCC1)N1CCc2nc(C#Cc3ccccc3)sc2C1", "CLH", 1),
]

Moving on to another molecule below.
### Prompt Give CLH for the following molecule: `CN1CCc2nc(C#Cc3ccccc3)sc2C1=O`
### Response 3.1

Origin of values: ChEMBL document CHEMBL2401712
